# Tested system: BM-4831-CoV receptor-binding domain (RBD) (Bat coronavirus BM48-31/BGR/2008)
# Procedure summary: ELISA
Experimental readout: binding result

{"columns": ["Binder", "Value reported"],
 "data": [
  ["psNb 2-38 (VHH) VHH: QVQLVESGGGLVQAGGSLRLSCAAAARFSTSAMGWFRQAPGKEREFVAAISWSNTNTHYADTVKGRFTISADTAKETVDLQMNSLKPEDTAVYYCVQGGWGIRQPIIVDYWGKGTQVTVSS", "binds"],
  ["psNb 2-65 (VHH) VHH: HVQLVESGGGLVQAGGSLRLSCAASGTISTLNAMGWYRQAPGKQRELLASISNLGTTYHADSVAGRFTISRGSAKNTVNLQMNSLKPDDTAVYYCNTRVLEGGTQIRDYWGQGTQVTVSS", "binds"]
]}
